- Tested on: MALME-3M melanoma
- Protocol: NCI tumour cell line growth inhibition, 48 h
Measurement type: TGI

>>> reading("CCN(CC)CCNc1ccc2nnn3c4ccccc4c(=O)c1c23")
"16.1 µM"
>>> reading("COc1ccc(/C=c2/sc3n(c2=O)NC(c2ccc(Cl)cc2)NN=3)cc1 (stereo unspecified)")
"> 100 µM"
>>> reading("COc1cc2c(cc1OC)c1c(OC)c(OC)cc3c1c1c2sc(=S)n1CC3")
"> 100 µM"
>>> reading("CC1=NN(C(=O)c2ccc(Cl)cc2)C(=O)/C1=C/c1ccco1")
"> 100 µM"
>>> reading("COc1ccc(/C=C2\\CC(C)CC3C2=NN(c2ccccc2)C3c2ccc(OC)c(OC)c2)cc1OC (stereo unspecified)")
"> 100 µM"
>>> reading("CC1(C)CN=C(Nc2ccc(F)c(F)c2)S1")
"> 100 µM"

====

Form field: TGI (one value per entry).
- System: OVCAR-4 ovarian
- Protocol: NCI tumour cell line growth inhibition, 48 h
Measurement type: TGI

>>> reading("CC(C)(C)NC(=O)C12C3C4C1C1C2C3C41C(=O)NC(C)(C)C (stereo not drawn)")
"> 100 µM"
>>> reading("Cc1cc2c(cc1C)C(=O)/C(=N/Nc1ccc(F)cc1)CCO2")
"> 100 µM"
>>> reading("NC(N)=NC(N)=Nc1ccccc1 (tested in a mixture with another compound)")
"> 100 µM"

====

// reported TGI for each item listed
- System: NCI-H226 lung
- Protocol: NCI tumour cell line growth inhibition, 48 h
Measurement type: TGI

>>> reading("CC1(C)CN=C(Nc2ccc(F)c(F)c2)S1")
"> 100 µM"
>>> reading("O=C1C(Cl)C(c2cc3cc(Br)ccc3nc2Cl)N1c1c(Cl)cccc1Cl (stereo not drawn)")
"> 25 µM"
>>> reading("O=C(NNC(=S)NCc1ccccc1)C12CC3CC(CC(C3)C1)C2")
"> 100 µM"
>>> reading("O=C(NNC(=S)Nc1ccccc1)c1ccccn1")
"> 100 µM"
>>> reading("CCOC(=O)C1SC(=Nc2ccc(Cl)cc2C)N=C1C (stereo not drawn)")
"63.5 µM"
>>> reading("COC(=O)c1ccc2c(c1)c1c(C)c3ccncc3c(C)c1n2C")
"13.2 µM"
>>> reading("Cn1c(-c2ccc(N=NNc3ccc(-c4n[nH]c(=S)n4C)cc3)cc2)n[nH]c1=S")
"48.8 µM"
>>> reading("O=[N+]([O-])c1sc2ccc(Cl)cc2c1Nc1ccc(Cl)cc1")
"> 100 µM"
>>> reading("NC(=O)C(Nc1ccc(Cl)cc1)c1cc2cc(Br)ccc2nc1Cl (stereo not drawn)")
"> 50 µM"
>>> reading("O=[As](O)(O)c1ccc2nc3cc([As](=O)(O)O)ccc3nc2c1")
"> 100 µM"
>>> reading("N#Cc1c(N)c(C#N)c2c(c1-c1ccc(Cl)cc1)COc1ccccc1-2")
"98.9 µM"
>>> reading("O=C(O)CCSC(=S)Nc1cccc(F)c1")
"> 100 µM"
>>> reading("C=C1NC(=O)C(CC(C(=O)C(=O)Nc2c(C)cccc2C(C)(C)C)C(=O)c2ccc3ccccc3c2)C(=O)N1 (stereo not drawn)")
"> 100 µM"
>>> reading("O=C(Nc1cccc(Cl)c1)c1cc(N=Nc2ccc([N+](=O)[O-])cc2Cl)ccc1O")
"16.6 µM"
>>> reading("COCOCC[C@@H]1CC=CC(NC(=O)OCc2ccccc2)C1/C=C/C(=O)CCC1OCCO1 (stereo partly drawn)")
"> 100 µM"
>>> reading("C[C@@H]1CC[C@@H]2[C@@H](C)C[C@H]3[C@@H]4C(C)(C)OC(=O)[C@]4(C)C(=O)[C@@]23C1=O")
"> 100 µM"
>>> reading("CC(C)(C)c1ccc(O)c(CN(Cc2cc(C(C)(C)C)ccc2O)C2CCCCC2)c1")
"> 100 µM"
>>> reading("COc1ccc2nc3n(c2c1)C(c1c(Cl)cccc1Cl)SC3 (stereo not drawn)")
"> 100 µM"
